- System: SF-539
- method_summary: Growth inhibition of human SF539 cells after 48 hrs by sulforhodamine B assay
- Format: functional
- settings: SF-539, 48 h
Please respond with reported log10(TGI) for every item in the list.
Hi team, quick reminder: these entries are log10 of TGI (nM).

Check out these entries, answers already filled in.
COc1cc(-c2nn(-c3cccc(NC(=O)Nc4cc(C(F)(F)F)cc(C(F)(F)F)c4)c3)cc2-c2ccncc2)ccc1Cl = 3.23
O=C(Nc1cccc(-n2cc(-c3ccncc3)c(-c3ccc(Cl)c(O)c3)n2)c1)Nc1ccc(Cl)c(C(F)(F)F)c1 = 3.38
COc1cc(-c2nn(-c3cccc(NC(=O)c4ccc(N5CCOCC5)c(C(F)(F)F)c4)c3)cc2-c2ccncc2)ccc1Cl = 2.70

# batch size: 2; output log10(TGI) per entry
1. O=C(Nc1cccc(-n2cc(-c3ccncc3)c(-c3ccc(Cl)c(O)c3)n2)c1)c1ccc(N2CCOCC2)c(C(F)(F)F)c1
2. O=C(Nc1cccc(-n2cc(-c3ccncc3)c(-c3ccc(Cl)c(O)c3)n2)c1)Nc1cc(C(F)(F)F)cc(C(F)(F)F)c1

1: 4.24; 2: 3.17
